Just for reference, patent US20250152746A1 is where these values come from.

Please provide measured Human Primary Hepatocyte Editing % 2500 for the entries that follow.
- System: PCSK9 gene
- measurementDescription: PCSK9 gRNA/SpCas9 editing in primary human hepatocytes (Tables 2, 4)
- Assay type: cell-based
- conditionDescription: 2500 ng/RNA/mL; SpCas9 mRNA MS002 1:1 by weight
In the oligonucleotide strings, read from the 5' end, every base follows the letter of its sugar. An asterisk marks phosphorothioate; unmarked linkages are phosphodiester. Other units and linkages are bracketed, terminal groups are in braces. A string of capitals states the bases alone. m = 2'-O-methyl; r = 2'-OH (RNA)
// units = %; emit number, no label

Lab note: GA189: PCSK9 gRNA; protospacer TCCTCGATGTAGTCGACATG (SEQ ID NO: 183) (nucleic acid) guide: mU*mC*mC*rUrCrGrArUrGrUrArGrUrCrGrArCrArUrGrGrUrUrUrUrArGrArGrCrUrArGrArArArUrArGrCrArArGrUrUrArArArArUrArArGrGrCrUrArGrUrCrCrGrUrUrArUrCrArArCrUrUrGrArArArArArGrUrGrGrCrArCrCrGrArGrUrCrGrGrUrGrCrU*mU*mU*mU gave Human Primary Hepatocyte Editing % 2500 of 31.23

The recorded Human Primary Hepatocyte Editing % 2500 for GA169: PCSK9 gRNA; protospacer CGTGCGCAGGAGGACGAGGA (SEQ ID NO: 163) (nucleic acid, sugars from the 5' end m3 r94 m3, linkages s3 o93 s3 (s phosphorothioate, o phosphodiester), T or U not given here) guide: CGUGCGCAGGAGGACGAGGAGUUUUAGAGCUAGAAAUAGCAAGUUAAAAUAAGGCUAGUCCGUUAUCAACUUGAAAAAGUGGCACCGAGUCGGUGCUUUU is 46.65

// field: Human Primary Hepatocyte Editing % 2500; key: GA201: PCSK9 gRNA; protospacer CAGCATACAGAGTGACCACC (SEQ ID NO: 195) (nucleic acid, sugars from the 5' end m3 r94 m3, linkages s3 o93 s3 (s phosphorothioate, o phosphodiester), T or U not given here) guide: CAGCAUACAGAGUGACCACCGUUUUAGAGCUAGAAAUAGCAAGUUAAAAUAAGGCUAGUCCGUUAUCAACUUGAAAAAGUGGCACCGAGUCGGUGCUUUU ; value = 31.51
